# Test system: NCI-H226 lung
# methodSummary: NCI-60 one-dose screen, 48 h
# statedConditions: 10 µM unless noted
This is part of a sample that, as a whole, favours compounds with a hit. Of some 83,000 tested, about 20% had one in any assay. The source made the active and inactive calls. Rule for the calls: active = growth percent below 10; inactive = the rest.
Just give me one of these, please: 1 (active), -1 (inactive)

[[record]]
compound = "COC(=O)/C=C1\\S/C(=N\\NC(=O)c2cc3ccc2/C=C\\c2ccc(cc2)/C=C\\3)N(c2ccccc2)C1=O"
classname = -1

[[record]]
compound = "C=C1C(=O)O[C@H]2[C@H]1CC/C(COC(=O)NCc1c[nH]c3ccc(F)cc13)=C\\CC[C@@]1(C)O[C@@H]21"
classname = 1

[[record]]
compound = "O=C(c1nnc(Nc2ccccc2Br)o1)c1c[nH]c2ccccc12"
classname = -1

[[record]]
compound = "O=C1c2ccc3c4c(ccc(c24)C(=O)N1CCCNCc1ccccc1Cl)C(=O)N(CCCNCc1ccccc1Cl)C3=O"
classname = 1


Enquiry: Each compound tested received a call. Report the one for c1ccc2c(-c3nccs3)c[nH]c2c1 .
Return: -1

Enquiry: Same thing, different compound: O=C1OC(Cc2ccccc2)C1c1ccccc1 (centres undefined)
Return: -1

Enquiry: Same thing, different compound: O=C(/C(=C\c1ccc([N+](=O)[O-])cc1)S(=O)Cc1ccc(Cl)cc1)c1ccc(Cl)cc1 (centres undefined)
Return: -1

Enquiry: Same thing, different compound: CC(=O)[C@@H]1CC[C@]2(C(N)=O)CC[C@]3(C)[C@H](CC[C@@H]4[C@@]5(C)CCCNC(C)(C)[C@@H]5CC[C@]43C)[C@@H]12
Return: -1

Enquiry: Same thing, different compound: COc1cc(OC)cc(C(=O)C[n+]2cccc3cc[nH]c32)c1
Return: -1
